Ref: patent US20180057505A1

- System: PAR2 (HT-29 cells) (Homo sapiens, UniProt P55085)
- Construct: host or cells: HT-29
- Sequence (P55085 26-397): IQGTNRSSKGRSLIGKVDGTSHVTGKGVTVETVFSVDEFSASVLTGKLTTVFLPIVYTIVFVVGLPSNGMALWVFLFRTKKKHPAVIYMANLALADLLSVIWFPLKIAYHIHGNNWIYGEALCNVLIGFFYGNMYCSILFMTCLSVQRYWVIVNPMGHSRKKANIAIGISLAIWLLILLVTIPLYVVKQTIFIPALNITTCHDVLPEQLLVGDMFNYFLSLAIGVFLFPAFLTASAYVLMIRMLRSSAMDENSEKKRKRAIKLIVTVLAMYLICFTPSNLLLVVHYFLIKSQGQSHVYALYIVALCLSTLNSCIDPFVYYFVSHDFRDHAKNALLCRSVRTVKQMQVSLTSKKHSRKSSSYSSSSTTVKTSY
- Procedure Details: Ca FLIPR TETRA assay, ANTAGONIST mode, activator 8 μM SLIGKV
- Format: cell-based
- Test Conditions: HT-29 cells; activator 8 μM SLIGKV; Method A: maximal concentration of antagonist 0.1, 1 or 2 μM
pIC50: −log10 of the molar value.
Measured Metric: pIC50

Worked cases, pIC50 given:
# Molecule, Value
rows = [
    ("CC(C)(C)c1cc(-c2ccc(Cl)c(F)c2)nc2cc(C(=O)N3CCN(C(=O)[C@@H]4CC[C@@H]4C(=O)O)CC3(C)C)oc12 [Example I-543]", 9.22),
    ("CC1(C)CCC(c2cc(C(C)(C)C)c3oc(C(=O)N4CCN(C(=O)CCCC(=O)O)CC4(C)C)cc3n2)CC1 [Example I-378]", 8.77),
    ("Cc1nc(N2CCN(C(=O)c3cc4nc(-c5ccc(Cl)cc5)cc(C(C)(C)C)c4o3)C(C)(C)C2)oc1C(=O)O [Example I-478]", 8.72),
    ("Cc1ccc(N2CCN(C(=O)c3cc4nc(-c5ccc(Cl)c(F)c5)cc(C(C)(C)C)c4o3)C(C)(C)C2)nc1C(=O)O [Example I-487]", 9.70),
    ("Cc1ccnc(N2CCN(C(=O)c3cc4nc(-c5ccc(Cl)cc5)cc(C(C)(C)C)c4o3)C(C)(C)C2)n1 [Example I-403]", 7.64),
    ("CC(C)(C)c1cc(-c2ccc(Cl)cc2)nc2cc(C(=O)N3CCN(c4ccccn4)C(=O)C3(C)C)oc12 [Example I-330]", 7.68),
    ("CC(C)(C)c1cc(-c2ccc(Cl)c(F)c2)nc2cc(C(=O)N3CCN(S(C)(=O)=O)CC3(C)C)oc12 [Example I-508]", 8.09),
    ("CC(C)(C)c1cc(-c2ccc(Cl)c(F)c2)nc2cc(C(=O)N3CCNC(=O)CC3(C)C)oc12 [Example I-336]", 8.20),
]

P. CC(C)(C)c1cc(-c2ccc(Cl)c(F)c2)nc2cc(C(=O)N3CCN(c4cccc(C(=O)O)n4)CC3(C)C)oc12 [Example I-448]
Q. CC(C)[C@H](CC(=O)N1CCN(C(=O)c2cc3nc(-c4ccc(Cl)cc4)cc(C(C)(C)C)c3o2)C(C)(C)C1)C(=O)O [Example I-333]
Field: entry with larger pIC50 (options P / Q ). Answer = label.
P
(P: 9.70, Q: 9.40)

P. Cc1ccnc(N2CCN(C(=O)c3cc4nc(-c5ccc(Cl)cc5)cc(C(C)(C)C)c4o3)C(C)(C)C2=O)n1 [Example I-340]
Q. Cc1ncc(N2CCN(C(=O)c3cc4nc(C5CCC(C)(C)CC5)cc(C(C)(C)C)c4o3)C(C)(C)C2)nc1C(=O)O [Example I-544]
R. CC(C)(C)c1cc(-c2ccc(Cl)cc2)nc2cc(C(=O)N3CCN(c4ncc(C(=O)O)cc4F)CC3(C)C)oc12 [Example I-393]
rank_up(items): orders items by reported pIC50 in ascending numerical order. To answer, write out the labels according to the requested order.
Q, P, R

* * *

- System: PAR2 (HT-29 cells) (Homo sapiens)
- Construct: host or cells: HT-29
- Procedure Details: Ca FLIPR TETRA assay, ANTAGONIST mode, activator 3.1 U/mL trypsin
- Assay type: cell-based
- Test Conditions: HT-29 cells, activator 3.1 U/mL trypsin; maximal antagonist concentration per Method (A: 0.1, 1 or 2 μM; B: 50 μM)
Measured Metric: IC50 (nM)

# Molecule, Measured Metric, Unit Label, Value
records = [
    ("CC(C)c1cc(-c2ccc(F)cc2)nc2cc(C(=O)N3CCN(C(=O)C4CCCCO4)CC3(C)C)oc12 (stereo not shown)", "IC50", "nM", 6),
    ("CC[C@@H](O)C(=O)N1CCN(C(=O)c2cc3nc(-c4ccc(F)cc4)cc(C4(C)CC4)c3o2)C(C)(C)C1", "IC50", "nM", 3.5),
    ("Cc1cc(C(=O)N2CCN(C(=O)c3cc4nc(-c5ccc(C(F)(F)F)cc5)cc(C(C)(C)C)c4o3)C(C)(C)C2)[nH]n1", "IC50", "nM", 6.6),
]

1. CC(C)(C)c1cc(-c2ccc(Cl)cc2)nc2cc(C(=O)N3CCNC(=O)C3(C)C)oc12 [Example I-157]
2. Cc1nn(C)cc1S(=O)(=O)N1CCN(C(=O)c2cc3nc(-c4ccc(F)cc4)cc(C(C)C)c3o2)C(C)(C)C1
3. Cc1n[nH]c(C(=O)N2CCN(C(=O)c3cc4nc(C5CCC(C)(C)CC5)cc(C(C)(C)C)c4o3)C(C)(C)C2)n1
4. CC1(c2cc(-c3ccc(F)cc3)nc3cc(C(=O)N4CCN(C(=O)C5CC(O)(C(F)(F)F)C5)CC4(C)C)oc23)CC1 (stereo not shown)
rank_up(items): orders items by reported IC50 in ascending numerical order. To answer, write out the labels according to the requested order.
4, 3, 1, 2
(4: 0.64 nM, 3: 1.2 nM, 1: 7.9 nM, 2: 21 nM)
